System: SR leukemia
PROTOCOL: NCI-60 one-dose screen, 48 h (100 = growth as untreated, 0 = no growth, -100 = all killed)
STUDY_CONDITIONS: 10 µM unless noted
This is part of a sample that, as a whole, favours compounds with a hit. Of some 83,000 tested, about 20% had one in any assay.
OBSERVATION_TYPE: growth (%)
Number in %, nothing else.

COMPOUND	REPORTED_RESULT
CC1=C(C)C(=O)O[C@@H]([C@](C)(O)[C@]2(O)CC[C@@]3(O)[C@@H]4C[C@H]5O[C@]56CC=CC(=O)[C@]6(C)[C@H]4CC[C@]23C)C1	-23.5
c1ccc2c(c1)sc1ccccc12	105
CC[C@H](C)[C@H](NC(=O)[C@H]1CCCCN1C)C(=O)N(C)[C@H](C[C@@H](OC(C)=O)c1nc(C(=O)NC23C4C5C2C2C3C4C52C(=O)OC)cs1)C(C)C (stereo not given in full)	2.77
CN(C)c1ccc([N+](=O)[O-])c([N+](=O)[O-])c1	78.3
O=C(CBr)OCCOC(=O)CBr	8.37

Could you tell me which growth is on file for "COC[C@H]1OC(=O)c2coc3c2[C@@]1(C)C1=C(C3=O)[C@@H]2CCC(=O)[C@@]2(C)C[C@H]1OC(C)=O" ?
12.1

Would you kindly repeat that for "O=P(O)(Nc1ccccc1)Nc1ccccc1" ?
104

Would you kindly repeat that for "N#CC(C#N)=C(C#N)C#N" ?
105

Would you kindly repeat that for "CCOC(=O)c1ccccc1C(=O)OCC" ?
128

Would you kindly repeat that for "Cc1nnc([S-])o1.[Au+].c1ccc([PH+](c2ccccc2)c2ccccc2)cc1" ?
20.8

These measurements were taken from PubChem BioAssay (NCI).
